Attribute: Animal with Lesion
system: gastric mucosa; assay: Gastric Hemorrhage Lesion Formation Assay (GHLF) / gastric irritation; type: in vivo, rat (Sprague-Dawley, male); conditions: 90 mg/kg, oral, fasted, 4 h; animals with at least one lesion/group
PARAMETER_MEASURED: Animal with Lesion

compound=Cc1cc(CC(=O)O)n(C)c1C(=O)c1ccccn1 reported_measurement=0/6
compound="COc1cc(CC(=O)O)n(C)c1C(=O)c1ccc(C(F)(F)F)cc1 [4-CF3C6 H5; OCH3; CH3]" reported_measurement=0/6
compound="Cc1cc(CC(=O)O)n(C)c1C(=O)c1cccnc1 [drawing 23]" reported_measurement=0/6
compound="COc1cc(CC(=O)O)n(C)c1C(=O)c1ccc(C)cc1 [4-CH3C6 H5; OCH3; CH3]" reported_measurement=0/6
compound="COc1cc(CC(=O)O)n(C)c1C(=O)c1ccc(Cl)cc1 [4-ClC6 H5; CH3 O; CH3]" reported_measurement=3/5
compound=CSc1ccc(C(=O)c2c(C)cc(CC(=O)OCCNC(C)=O)n2C)n1C reported_measurement=2/6
